Assay remarks: End-to-end contact formation (no covalent bond): MR121 oxazine dye fluorescence quenched by C-terminal Trp through van der Waals contact/stacking; ns-resolved FCS; single-exponential fit over 6-300 ns with two-state model
Settings: the molecule shown is the open-chain precursor; water (aqueous solution); 20.0 °C
Consider the cut-off 30. If the recorded end-to-end contact formation time constant (ns (closing time constant tau+ = 1/k+)) is strictly smaller, the label is fulfilled; if not, the label is not fulfilled.

The examples below pair each entry with its known result.
- Structure string: "CCN1CCCc2cc3c(cc21)Oc1cc2c(cc1=N3)CCC[N+]=2CCCC(=O)NCC(=O)N[C@@H](CO)C(=O)NCC(=O)N[C@@H](CO)C(=O)NCC(=O)N[C@@H](CO)C(=O)NCC(=O)N[C@@H](CO)C(=O)NCC(=O)N[C@@H](CO)C(=O)NCC(=O)N[C@@H](CO)C(=O)NCC(=O)N[C@@H](CO)C(=O)N[C@@H](Cc1c[nH]c2ccccc12)C(=O)[O-]"
  Class label: "not fulfilled"
- Structure string: "CCN1CCCc2cc3c(cc21)Oc1cc2c(cc1=N3)CCC[N+]=2CCCC(=O)NCC(=O)N[C@@H](CO)C(=O)NCC(=O)N[C@@H](CO)C(=O)NCC(=O)N[C@@H](CO)C(=O)NCC(=O)N[C@@H](CO)C(=O)NCC(=O)N[C@@H](CO)C(=O)NCC(=O)N[C@@H](CO)C(=O)NCC(=O)N[C@@H](CO)C(=O)NCC(=O)N[C@@H](CO)C(=O)NCC(=O)N[C@@H](CO)C(=O)NCC(=O)N[C@@H](CO)C(=O)NCC(=O)N[C@@H](CO)C(=O)NCC(=O)N[C@@H](CO)C(=O)N[C@@H](Cc1c[nH]c2ccccc12)C(=O)[O-]"
  Class label: "not fulfilled"
- Structure string: "CCN1CCCc2cc3c(cc21)Oc1cc2c(cc1=N3)CCC[N+]=2CCCC(=O)NCC(=O)N[C@@H](CO)C(=O)NCC(=O)N[C@@H](CO)C(=O)NCC(=O)N[C@@H](CO)C(=O)NCC(=O)N[C@@H](CO)C(=O)NCC(=O)N[C@@H](CO)C(=O)N[C@@H](Cc1c[nH]c2ccccc12)C(=O)[O-]"
  Class label: "fulfilled"
- Structure string: "CCN1CCCc2cc3c(cc21)Oc1cc2c(cc1=N3)CCC[N+]=2CCCC(=O)NCC(=O)N[C@@H](CO)C(=O)NCC(=O)N[C@@H](CO)C(=O)NCC(=O)N[C@@H](CO)C(=O)N[C@@H](Cc1c[nH]c2ccccc12)C(=O)[O-]"
  Class label: "fulfilled"
- Structure string: "CCN1CCCc2cc3c(cc21)Oc1cc2c(cc1=N3)CCC[N+]=2CCCC(=O)NCC(=O)N[C@@H](CO)C(=O)NCC(=O)N[C@@H](CO)C(=O)NCC(=O)N[C@@H](CO)C(=O)NCC(=O)N[C@@H](CO)C(=O)NCC(=O)N[C@@H](CO)C(=O)NCC(=O)N[C@@H](CO)C(=O)NCC(=O)N[C@@H](CO)C(=O)NCC(=O)N[C@@H](CO)C(=O)NCC(=O)N[C@@H](CO)C(=O)N[C@@H](Cc1c[nH]c2ccccc12)C(=O)[O-]"
  Class label: "not fulfilled"

Continue with the next compound.
Hello, is end-to-end contact formation time constant (ns (closing time constant tau+ = 1/k+)) of the following compound strictly smaller than 30? CCN1CCCc2cc3c(cc21)Oc1cc2c(cc1=N3)CCC[N+]=2CCCC(=O)NCC(=O)N[C@@H](CO)C(=O)NCC(=O)N[C@@H](CO)C(=O)N[C@@H](Cc1c[nH]c2ccccc12)C(=O)[O-]
fulfilled
